Where a name gives a salt, the structure may show the parent alone.

compound: Cc1c[n+](CC(N)=O)cs1.[Br-]
melting point: 179 to 180 °C
--
compound: NC(=O)C[n+]1ccsc1.[Br-] [3-(2-amino-2-oxoethyl)thiazolium bromide]
melting point: 205 to 206 °C
--
compound: Cc1c(CCO)sc[n+]1Cc1ccccc1.[Cl-]
melting point: 144 to 146 °C
--
compound: NC(=O)C[n+]1c(N)sc2ccccc21.[Br-]
melting point: 234 to 235 °C
--
compound: O=C(C[n+]1csc2ccccc21)c1ccccc1.[Br-]
melting point: 240 to 241 °C (dec.)
--
compound: COC(=O)C[n+]1csc(CCO)c1C.[Br-]
melting point: 137 to 138 °C
--
compound: CC(=O)C[n+]1ccsc1.[Cl-]
melting point: 178 to 179 °C
--
compound: NC(=O)C[n+]1ccsc1N.[Br-]
melting point: 209 to 210 °C
--
compound: COC(=O)C[n+]1csc(CCOC(C)=O)c1C.[Br-]
melting point: 217 to 218 °C
--
compound: COC(=O)C[n+]1ccsc1N.[Br-]
melting point: 191 to 192 °C
--
compound: Cc1c(CCO)sc[n+]1CC(=O)c1ccc(Br)cc1 (as salt: bromide)
melting point: 251 to 252 °C (dec.)
--
compound: COC(=O)C[n+]1c(N)sc2ccccc21.[Br-]
melting point: 236 to 237 °C
--
compound: CC[n+]1csc(CCO)c1C.[Br-]
melting point: 84 to 85 °C
--
compound: NC(=O)C[n+]1csc2ccccc21.[Br-]
melting point: 222 to 223 °C
--
compound: O=C(O)C[n+]1csc2ccccc21.[Br-] [3-(carboxymethyl)benzothiazolium bromide]
melting point: 250 °C (dec.)
--
compound: Cc1csc[n+]1CC(=O)c1ccccc1.[Br-]
melting point: 218 to 220 °C (dec.)
--
compound: CC(=O)OCCc1sc[n+](CC(N)=O)c1C.[Br-]
melting point: 233 to 234 °C
--
compound: COC(=O)C[n+]1cscc1C.[Br-]
melting point: 149 to 151 °C (dec.)
--
compound: Cc1sc[n+](CC(N)=O)c1C.[Br-]
melting point: 147 to 148 °C
--
compound: COC(=O)C[n+]1csc(C)c1.[Br-]
melting point: 193 to 194 °C (dec.)

---

Biological target: AGE-BSA previously crosslinked to the collagen (Bos taurus)
Construct: Type V BSA (bovine serum albumin); purchased Calbiochem (BSA Type V); Collaborative Biomedical Products (Biocoat rat tail collagen type I plates)
Sequence (P02769 25-607): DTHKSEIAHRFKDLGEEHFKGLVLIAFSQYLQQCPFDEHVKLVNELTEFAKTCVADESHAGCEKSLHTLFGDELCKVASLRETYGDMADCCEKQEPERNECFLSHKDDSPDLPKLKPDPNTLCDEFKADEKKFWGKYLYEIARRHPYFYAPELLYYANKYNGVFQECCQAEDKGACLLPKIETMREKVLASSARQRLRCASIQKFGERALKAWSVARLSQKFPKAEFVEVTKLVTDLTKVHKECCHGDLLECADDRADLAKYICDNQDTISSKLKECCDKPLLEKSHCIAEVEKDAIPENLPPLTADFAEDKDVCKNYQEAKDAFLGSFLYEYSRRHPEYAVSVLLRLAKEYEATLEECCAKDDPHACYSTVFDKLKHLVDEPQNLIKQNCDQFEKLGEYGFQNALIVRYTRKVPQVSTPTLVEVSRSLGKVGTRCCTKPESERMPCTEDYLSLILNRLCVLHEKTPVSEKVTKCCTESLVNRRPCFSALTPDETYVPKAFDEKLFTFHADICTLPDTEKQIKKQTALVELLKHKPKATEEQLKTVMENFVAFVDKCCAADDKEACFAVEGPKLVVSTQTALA
Sequence (P02454 152-1207 partner limits assumed): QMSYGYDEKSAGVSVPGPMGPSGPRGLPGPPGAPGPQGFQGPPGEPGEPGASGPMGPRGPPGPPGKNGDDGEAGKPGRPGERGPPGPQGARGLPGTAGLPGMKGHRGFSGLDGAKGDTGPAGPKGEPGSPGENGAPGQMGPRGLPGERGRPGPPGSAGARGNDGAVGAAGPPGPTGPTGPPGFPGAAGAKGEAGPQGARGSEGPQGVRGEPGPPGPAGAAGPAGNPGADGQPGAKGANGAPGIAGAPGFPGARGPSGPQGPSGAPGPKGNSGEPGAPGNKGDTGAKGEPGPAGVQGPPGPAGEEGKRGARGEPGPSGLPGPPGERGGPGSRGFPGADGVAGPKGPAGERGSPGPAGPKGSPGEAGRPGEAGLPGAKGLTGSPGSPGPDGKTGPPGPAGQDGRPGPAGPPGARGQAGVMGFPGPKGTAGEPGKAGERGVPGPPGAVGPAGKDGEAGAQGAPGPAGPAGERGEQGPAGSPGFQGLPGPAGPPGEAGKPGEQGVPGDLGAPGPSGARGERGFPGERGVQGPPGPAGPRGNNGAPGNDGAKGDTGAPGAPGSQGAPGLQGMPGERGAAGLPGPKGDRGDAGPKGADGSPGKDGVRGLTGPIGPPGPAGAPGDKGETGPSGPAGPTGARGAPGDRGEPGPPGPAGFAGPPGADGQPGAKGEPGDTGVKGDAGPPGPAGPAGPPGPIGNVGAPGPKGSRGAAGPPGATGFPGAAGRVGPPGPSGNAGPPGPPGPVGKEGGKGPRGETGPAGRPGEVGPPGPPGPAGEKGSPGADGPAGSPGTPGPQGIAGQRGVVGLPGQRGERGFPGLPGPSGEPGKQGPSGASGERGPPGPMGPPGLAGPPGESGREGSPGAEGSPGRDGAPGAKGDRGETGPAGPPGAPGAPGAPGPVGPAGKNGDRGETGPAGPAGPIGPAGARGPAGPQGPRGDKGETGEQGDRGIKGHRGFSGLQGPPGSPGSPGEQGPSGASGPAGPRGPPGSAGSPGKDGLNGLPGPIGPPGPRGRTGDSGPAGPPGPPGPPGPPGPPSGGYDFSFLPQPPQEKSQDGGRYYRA
Sequence (P02466 86-1125 partner limits assumed): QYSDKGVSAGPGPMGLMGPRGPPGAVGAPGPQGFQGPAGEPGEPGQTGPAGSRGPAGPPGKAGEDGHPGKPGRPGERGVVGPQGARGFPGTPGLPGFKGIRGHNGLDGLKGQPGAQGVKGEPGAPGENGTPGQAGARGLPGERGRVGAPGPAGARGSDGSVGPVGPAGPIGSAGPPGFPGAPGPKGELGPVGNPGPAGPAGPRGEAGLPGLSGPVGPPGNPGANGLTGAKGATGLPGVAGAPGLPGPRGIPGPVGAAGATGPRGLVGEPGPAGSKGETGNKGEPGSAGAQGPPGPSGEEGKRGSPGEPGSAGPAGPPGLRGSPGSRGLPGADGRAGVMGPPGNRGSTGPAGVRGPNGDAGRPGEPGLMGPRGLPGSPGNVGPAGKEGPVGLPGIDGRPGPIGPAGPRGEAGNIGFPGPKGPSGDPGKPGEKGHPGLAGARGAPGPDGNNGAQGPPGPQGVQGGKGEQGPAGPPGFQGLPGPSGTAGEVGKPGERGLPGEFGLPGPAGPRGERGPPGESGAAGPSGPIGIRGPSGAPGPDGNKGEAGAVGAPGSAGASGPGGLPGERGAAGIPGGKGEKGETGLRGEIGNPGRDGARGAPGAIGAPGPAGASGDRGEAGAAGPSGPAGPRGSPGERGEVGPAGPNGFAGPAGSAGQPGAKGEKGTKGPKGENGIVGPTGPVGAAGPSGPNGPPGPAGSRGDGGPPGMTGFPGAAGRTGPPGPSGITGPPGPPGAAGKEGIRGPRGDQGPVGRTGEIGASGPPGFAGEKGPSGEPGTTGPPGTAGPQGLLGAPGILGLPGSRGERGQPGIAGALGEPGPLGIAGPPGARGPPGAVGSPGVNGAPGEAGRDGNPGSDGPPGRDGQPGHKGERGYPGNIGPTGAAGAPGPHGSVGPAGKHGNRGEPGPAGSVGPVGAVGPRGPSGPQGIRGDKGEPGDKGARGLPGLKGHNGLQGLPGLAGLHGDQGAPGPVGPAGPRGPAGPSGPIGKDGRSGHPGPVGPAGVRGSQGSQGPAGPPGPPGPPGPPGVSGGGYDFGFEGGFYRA
Assay: Sandwich enzyme immunoassay for breaking of AGE moieties from AGE-BSA crosslinked to collagen (AGE breaker assay)
Format: biochemical, bovine; rat
Settings: read-out: % Inhibition Anti-BSA (at mM)
Label fulfilled when inhibition at 30000 µM is at or above 40%; otherwise label not fulfilled.

compound: COC(=O)C[n+]1csc(C)c1.[Br-]
system.under.test: AGE-BSA previously crosslinked to the collagen (Bos taurus)
qualitative.label: not fulfilled
--
compound: O=C(O)C[n+]1csc2ccccc21.[Br-] [3-(carboxymethyl)benzothiazolium bromide]
system.under.test: AGE-BSA previously crosslinked to the collagen (Bos taurus)
qualitative.label: not fulfilled
--
compound: COC(=O)C[n+]1csc(C)c1C
system.under.test: AGE-BSA previously crosslinked to the collagen (Bos taurus)
qualitative.label: not fulfilled
--
compound: Cc1sc[n+](CC(N)=O)c1C.[Br-]
system.under.test: AGE-BSA previously crosslinked to the collagen (Bos taurus)
qualitative.label: fulfilled

Values were extracted from patent USRE38330E1.
